Data provenance: the supplement of paper PMC9942255

system: Bacillus subtilis DB104 (SP-AmyQ fusion secretion); assay: AmyQ secretion efficiency, weighted average sort bin (1 = best secretion, 10 = worst) (bin number (weighted average, 1-10)); higher = lower secretion efficiency
The following sequences are shown together with reported AmyQ secretion efficiency values.

Sequence String	AmyQ secretion efficiency
MPIKKKVMMCLAVTLVFGSMIFITLTNSGGFKE	6.04
MKKTRQTLVILGALGTSYISADSS	5.19
MKRIRIPMTLALGAALTIAPLSFTSAEEN	3.52
MLKKIALTLCPAIVGSLLFFTAPAPVAVASFAAAASAHVS	5.09

# query: AmyQ secretion efficiency of entry MKWMCSICCAAVLLAGRRRRRKAQAEAV
6.72

Could you share which AmyQ secretion efficiency value was measured for MKKVLMAFIICLSLILSTISSVLAAPPSGAKAESV ?
2.8

For the sequence MKLAKRVSALTPSTTLAITAKAAPD , what AmyQ secretion efficiency is on record?
7.89

Requested field: AmyQ secretion efficiency. Item: MKKTIMSFVAVAALSTTAFGAHTSAKEI
2.69

Item under review: MLKKKWMVGLLAGCLAAGGFSYNAFMTEN . Reported AmyQ secretion efficiency?
6.25

Can you look up the measured AmyQ secretion efficiency of MLKKIALTLCPAIVGSLLFFTVILITAPASAHVS for me?
3.87

Consider the sequence shown here: MKKKQVMLALTAAAGLGLTALHDAPAAKAAPL What is its recorded AmyQ secretion efficiency?
2.66

Name the recorded AmyQ secretion efficiency for MKKGIIRFLLVSFVLFFALSTGITGVQSAPA .
4.46

# lookup: AmyQ secretion efficiency of MKSCKQYKRCQYSSILLLIPSVSFAADS
7.62

Consider the sequence shown here: MKLKSKLLLSCLALSTVFVATTIANAPTR What is its recorded AmyQ secretion efficiency?
6.08

Field request: AmyQ secretion efficiency | item: MKWMCSICCAAVLLAGGAAQVEAV
2.92

###

test system: Bacillus subtilis DB104 (SP-AmyQ fusion secretion); assay: AmyQ secretion efficiency, weighted average sort bin (1 = best secretion, 10 = worst) (bin number (weighted average, 1-10)); higher = lower secretion efficiency
Here the recorded AmyQ secretion efficiency is given for each entry.
Answer with the value's number alone.

Answered cases to consult:
Sequence String	Assayed System	AmyQ secretion efficiency
MRFTKVVGFLSVLGLAAVFPLTAQREKA	Bacillus subtilis DB104 (SP-AmyQ fusion secretion)	5.37
MKRIRIPMTLALGAALTIAPLSFLSAEEN	Bacillus subtilis DB104 (SP-AmyQ fusion secretion)	4.62
MGSGTIWTIILGALLVCCIAVAYTLTKSQAGASSS	Bacillus subtilis DB104 (SP-AmyQ fusion secretion)	7.61

Entry under review: MKNMSCKLVVSVTLFFSFLTIGPLSHAQNS . Reported AmyQ secretion efficiency?
2.11

Request the reported AmyQ secretion efficiency associated with MFKKHTRKRKIIFLLASAVLAKPIEAHTV
7.04

Tell me the measured AmyQ secretion efficiency of MLKKIALTLCPAIVGSLLAPASAHVS , please.
4.32

Recorded AmyQ secretion efficiency of MTGYYKVLTMCFLGLILFVPTALADNS , please.
1.69

I'd like to know its AmyQ secretion efficiency. The sequence in question is MRKKKWMVGLLAGCLAAGGFSYNAFATEN
3.58

So what's the measured AmyQ secretion efficiency for this one? MNLRKILLSSALSLGMLVSAAPFLATSS
6.67

Param item = MNKKYFVLIVCIIFTSALFPTFSSVTRAQG ; retrieve measured AmyQ secretion efficiency.
1.05

I am curious: what AmyQ secretion efficiency value has been reported for MGRIKTKITILLVLLLLLAGGYTYIN ?
5.32

Which AmyQ secretion efficiency is reported for this sequence? MKKIVSILFMFGLVMGFSQFQPSTMFAADK
2.83

Please look up its AmyQ secretion efficiency: MTTKFTALAVFLLCFMPAAKIEHTQASLL
4.17

Param item = MKVKRRKRKLLLFAFEPSASGKKL ; retrieve measured AmyQ secretion efficiency.
6.97

Give the measured AmyQ secretion efficiency of MKKLLAAGIIGLLTVSIASPSFARRK .
6.83

For MRKKTKNRLISSVLSTVVISSLLFPQEAGASSK , what is its reported AmyQ secretion efficiency?
1.83

# query: AmyQ secretion efficiency of entry MPYLKRVLLLLVTGLFMSLFAVTATASGQTG
1.24

Would you mind telling me what AmyQ secretion efficiency value was observed for MIVIRKRKISIIVFLSVIQPQPS ?
5.82

Need AmyQ secretion efficiency of MKVLLSALLLLLFAFEPSASWKKL , thanks.
5.1

Reported AmyQ secretion efficiency for MRMLWRSLALCGLALTLAPCAQLAEP : what is it?
6.58

###

system: Bacillus subtilis DB104 (SP-AmyQ fusion secretion); assay: AmyQ secretion efficiency, weighted average sort bin (1 = best secretion, 10 = worst) (bin number (weighted average, 1-10)); higher = lower secretion efficiency
Label Not met if AmyQ secretion efficiency falls below 4; label Met in every other case.

Please review the entries below; each comes with its answer.
Sequence String	Classification
MNKFLKSNFRFLLAAALGISLLASSNFCKASND	Not met
MRPVFPLKKRRVLFLSCFFGARQTEASASKR	Met
MKKWIYVVLVLSIAGIGGFSVHGASS	Met

Dear colleague, could you confirm whether MKVPKTMLLSTAAGLLLSLTATSTSAHYV has AmyQ secretion efficiency at or above 4?
Met

Confirm if AmyQ secretion efficiency reported for the sequence MFNRLFRVCFLAALIMTLPNSVYAQKP is 4 or above.
Not met

Is AmyQ secretion efficiency at least 4? Consider MKKAFILSAAAAVGLFTFLILSFTGGVQQASAKEL
Not met

Determine whether this sequence has AmyQ secretion efficiency no lower than 4: MFKKHTISLLIIFLLASAVLAKPSEAHTV
Not met

Kindly determine if AmyQ secretion efficiency recorded for MKKRLIGFLVLVPALIMSGITLMEANKK is above or exactly 4.
Met

Could you verify whether the entry MRKKTKNRLISSVLSTVVISSLLFPGAAFAGASSK shows AmyQ secretion efficiency of no less than 4?
Not met

Evaluate MKSKWMSGLLLVAVGFSFTQVMHHAGET : AmyQ secretion efficiency at minimum 4?
Met

Does the sequence MKLWMRKTLVVLFTIVTFGLVSPPAALMMDKP have recorded AmyQ secretion efficiency that is 4 or more?
Not met

# bool: AmyQ secretion efficiency of MKVLLSALLLLLFAFEPSDSGKKL >= 4
Met

Does MKVCQKSIVRFLVFLIIFLFVIGTSVPFMANAQSD have a reported AmyQ secretion efficiency of at least 4?
Not met

Is the recorded value of AmyQ secretion efficiency equal to or greater than 4 for this sequence? MRKKLKWLSTLLGFIILLFLFKYQFSNNDS
Met

Determine whether this sequence has AmyQ secretion efficiency no lower than 4: MKRKRRKMACLILFSFTITTFINTETISAFSN
Not met

Reported AmyQ secretion efficiency reaches at least 4 for MRPVFPLKRSAVLFLSCFFGARQTEASASKR ?
Met

Textbook exercise: given the entry MKKVLMAFIICLSLILSVLAAPPSGAKAASV , state whether its AmyQ secretion efficiency is greater than or equal to 4.
Not met

Determine whether this sequence has AmyQ secretion efficiency no lower than 4: MKIRKILLSSALSFGMLEEDDPALAAGT
Not met

Is reported AmyQ secretion efficiency greater than or equal to 4 here: MHLIRAAGAVCLAVVLIAGCRFNEDQHQPEGENT
Met

Would you say MKIRKMFMFILLSSALSFGMLISAVPALAAGT shows AmyQ secretion efficiency at minimum 4?
Not met

###

Recorded AmyQ secretion efficiency values for a group of sequences are listed next.
system: Bacillus subtilis DB104 (SP-AmyQ fusion secretion); assay: AmyQ secretion efficiency, weighted average sort bin (1 = best secretion, 10 = worst) (bin number (weighted average, 1-10)); higher = lower secretion efficiency
Answer using only a numeral; do not append any unit.

The cases that follow already have their AmyQ secretion efficiency on record.
Sequence String	Measured Endpoint	Recorded Number
MKKLVLCVSILAVILSGVMLTQLS	AmyQ secretion efficiency	6.44
MTKLKMLSMLTVMIASLFIFSSQALLVQY	AmyQ secretion efficiency	6.07
MRRKRKRTSLLLAGLCTAAQMVFVTHASAEES	AmyQ secretion efficiency	2.89
MRGKSAVLLSLIMLIAGFLISFLFQM	AmyQ secretion efficiency	7.41
MRGKSAVLLSLIMLIAGFLDDDEEDSFSFQM	AmyQ secretion efficiency	8.01
MKLAKRNFMISMVSALTPSTTLAITAKAKEL	AmyQ secretion efficiency	7.41

What AmyQ secretion efficiency value was documented for this sequence, MKSRTIWTIILGALLVCCKKKKRTLTKSQAGASSS ?
6.52

Returns the measured AmyQ secretion efficiency for the input sequence. Input: MKLKKRVSMFLVALTMCGGLFVTPAKAVTD
3.07

# lookup: AmyQ secretion efficiency of MMGVLLSALLLLLFAFEPSASGKKL
6.16

Form field: reported AmyQ secretion efficiency of MKKQTTIINNSTIITATTAVVLGSTLFAGAASAQSI
3.18

Request the reported AmyQ secretion efficiency associated with MKRIRIPMTLALGAALTIAPLTVATASFASAEEN
4.63

// lookup AmyQ secretion efficiency for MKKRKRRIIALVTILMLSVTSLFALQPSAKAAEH
2.06

Would you kindly share the measured AmyQ secretion efficiency for MKRFLIGAGVAAVILSGWFIADHQFHSQEM ?
5.93

Name the recorded AmyQ secretion efficiency for MRKYTFVIASILLSFLSVLSGGHHESKAFPV .
5.44

Quick check: AmyQ secretion efficiency of MGLGKKLSVAVAASFMSLSISLPGVQAAED ?
2.84

// lookup AmyQ secretion efficiency for MKKKLAAGLTASAIVGTTLVVTPREAATI
6.83

Suppose we examine the sequence MPYLKRVLLLLVTGLFMSLFAVTATASFQTG ; what AmyQ secretion efficiency value has been reported?
2.53

Dear colleague, I am looking for the recorded AmyQ secretion efficiency of the following sequence: MMKCVICLSLLVFGTTAAHAEET
3.1

What value of AmyQ secretion efficiency has been recorded for this entry: MNKKYSSKQGCRIFTSALFPTFSSVTAAQG
4.96

Entry MRKKCSVCKKRRKRLLSCLSGKSAYAATS : reported AmyQ secretion efficiency = ?
7.64

Please give the measured AmyQ secretion efficiency for this sequence: MKKSQYFIVFICFFVLFSVHPIAEAAADS
3.62

# get_value(readout='AmyQ secretion efficiency', item= MKSKWMSGLLLVAVGFSFTQVMTHAGET )
7.1

AmyQ secretion efficiency lookup needed for MRKFLKSNFRFLLAAALGISLLASSNFIKASND , thanks.
4.13
